System: AAK1
Set-up: species or system human, MV4-11 + K-562 + COLO205 + SK-N-BE2 + OVCAR-8
conditionsUsed: read-out: apparent Kd; compound concentrations:100 nM and 1000 nM (sheet 'Samples'); n = 1

| compound | target | unitsSymbol | potency estimated from few doses |
| --- | --- | --- | --- |
| CS(=O)(=O)Nc1ccc(-c2ccnc3[nH]ccc23)cc1 [GSK993273A] | AAK1 | nM | 1890 |
| O=C(O)C(F)(F)F.O=c1[nH]ccc2nc(N[C@@H]3CCNC3)nc(Nc3cc(Cl)cc(Cl)c3)c12 [GSK2188764A] | AAK1 | nM | 114 |
| COc1cc[nH]c1/C=C1\C(=O)Nc2ccc(F)c(C#C[C@@H](O)[C@@H](N)[C@@H](C)O)c21 | AAK1 | nM | 171 |
| NC(=O)c1cc(-c2ccccc2)cc2c(C3CCNCC3)c[nH]c12 [GSK301362A] | AAK1 | nM | 1980 |
| Cc1occc1-c1nc(N)c(OC[C@@H](N)Cc2c[nH]c3ccccc23)cc1-c1cc2c(C)n[nH]c2cn1 [GSK1660450B] | AAK1 | nM | 1070 |
| CC(C)(CO)CNC(=O)c1ccc2c(c1)/C(=N/Nc1ccc(S(N)(=O)=O)cc1)C(=O)N2 [GW301784X] | AAK1 | nM | 1820 |
| Cl.Cl.NCC(C(=O)Nc1cc(Br)c(-c2ccnc3[nH]ccc23)s1)c1ccccc1.NCC(C(=O)Nc1cc(Br)c(-c2ccnc3[nH]ccc23)s1)c1ccccc1 (stereo not shown) [GSK1269851A] | AAK1 | nM | 84.4 |
| Cc1cccc(Nc2nc(N[C@H]3CCNC3)ncc2C(N)=O)c1.Cl [GSK2197149A] | AAK1 | nM | 64.6 |
| CCn1c(-c2nonc2N)nc2cncc(C(=O)N3CC[C@H](N)C3)c21.Cl | AAK1 | nM | 1700 |
| CCn1c(-c2nonc2N)nc2cncc(Br)c21 | AAK1 | nM | 517 |
| CC(C)Nc1cc(-c2ccc3c(N)n[nH]c3c2)nc(N)n1 [GSK2221681A] | AAK1 | nM | 149 |
| CS(=O)(=O)CCn1c(=O)c(Oc2ccc(F)cc2F)cc2cnc(NC3CCOCC3)nc21 | AAK1 | nM | 968 |
| CNC(=O)c1ccccc1Nc1nc(Nc2ccc(N3CCOCC3)cc2)ncc1Cl.Cl [GSK1576028A] | AAK1 | nM | 142 |
| CN(C)CC(O)COc1ccc(Nc2nccc(-c3cnn4nc(N5CCOCC5)ccc34)n2)cc1 (stereo not shown) [GW767488X] | AAK1 | nM | 23.6 |
| CN(C)CCNC(=O)Nc1ccc(N(C)c2ccnc(Nc3ccc(CS(C)(=O)=O)cc3)n2)cc1.Cl [GW830900A] | AAK1 | nM | 820 |
| Cc1cc(NC(=O)c2cccc(NC(=O)/C=C/CN(C)C)c2)ccc1Nc1nccc(-c2cccnc2)n1 | AAK1 | nM | 1000 |

* * *

System: EPHB6
Design: species or system human, MV4-11 + K-562 + COLO205 + SK-N-BE2 + OVCAR-8
conditionsUsed: read-out: apparent Kd; compound concentrations:100 nM and 1000 nM (sheet 'Samples'); n = 1
Recorded potency estimated from few doses by entry

| compound | unitsSymbol | potency estimated from few doses |
| --- | --- | --- |
| CC(C)c1nc(-c2ccc(F)c(NS(=O)(=O)c3c(F)cccc3F)c2)c(-c2ccnc(Nc3ccc(N4CCOCC4)nc3)n2)s1 [GSK1804250A] | nM | 738 |
| Cc1cc(-c2ccco2)cc(C)c1/C=C/c1cncc(-c2nn[nH]n2)c1.Cl [GW458344A] | nM | 401 |
| CNc1nc(-c2ccc3c(N)n[nH]c3c2)cc(N2C[C@@H](C(=O)NC3CCCCC3)CC[C@H]2C)n1 | nM | 1840 |
| CN1C[C@@H]2Cn3c(c(C4=C(c5cn(C)c6ccccc56)C(=O)NC4=O)c4ccccc43)C[C@H]2C1.Cl | nM | 1960 |
| Nc1ncnc2occ(-c3ccc(NC(=O)Nc4cc(C(F)(F)F)ccc4F)cc3)c12 | nM | 1000 |
| O=C1NC(=O)C(N2CCc3ccccc32)=C1c1ccccc1Cl | nM | 615 |

* * *

Entries and their potency estimated from few doses values follow.
Tested on: BMP2K
Design: species or system human, MV4-11 + K-562 + COLO205 + SK-N-BE2 + OVCAR-8
conditionsUsed: read-out: apparent Kd; compound concentrations:100 nM and 1000 nM (sheet 'Samples'); n = 1

| compound | potency estimated from few doses [nM] |
| --- | --- |
| Cc1cc(NC(=O)c2cccc(NC(=O)/C=C/CN(C)C)c2)ccc1Nc1nccc(-c2cccnc2)n1 [JNK-IN-7] | 1330 |
| C[C@@H](Oc1cc(-n2cnc3ccc(OCC4CCN(C)CC4)cc32)sc1C(N)=O)c1ccccc1Cl [GSK571989A] | 1870 |
| Nc1nccc(-c2ccc3c(N)n[nH]c3c2)n1 [GSK1034945A] | 194 |
| Cl.Cl.NC[C@H](CC1CCCCC1)NC(=O)c1cc(Br)c(-c2ccnc3[nH]ccc23)s1.NC[C@H](CC1CCCCC1)NC(=O)c1cc(Br)c(-c2ccnc3[nH]ccc23)s1 [GSK1581427A] | 106 |
| CC(C)N1CCC(n2cnc(-c3ccc(F)cc3)c2-c2ccnc(N)n2)CC1 [SB-223132] | 531 |
| Cl.Cl.NCC(NCc1ccc(-c2ccnc3[nH]ccc23)s1)c1ccccc1.NCC(NCc1ccc(-c2ccnc3[nH]ccc23)s1)c1ccccc1 (stereo not shown) [GSK1321565A] | 982 |
| CC(C)(CO)CNC(=O)c1ccc2c(c1)/C(=N/Nc1ccc(S(N)(=O)=O)cc1)C(=O)N2 [GW301784X] | 1840 |

* * *

Overview of recorded potency estimated from few doses for various compounds
target: Q6ZSR9 (human)
Sequence (Q6ZSR9 whole entry, looked up): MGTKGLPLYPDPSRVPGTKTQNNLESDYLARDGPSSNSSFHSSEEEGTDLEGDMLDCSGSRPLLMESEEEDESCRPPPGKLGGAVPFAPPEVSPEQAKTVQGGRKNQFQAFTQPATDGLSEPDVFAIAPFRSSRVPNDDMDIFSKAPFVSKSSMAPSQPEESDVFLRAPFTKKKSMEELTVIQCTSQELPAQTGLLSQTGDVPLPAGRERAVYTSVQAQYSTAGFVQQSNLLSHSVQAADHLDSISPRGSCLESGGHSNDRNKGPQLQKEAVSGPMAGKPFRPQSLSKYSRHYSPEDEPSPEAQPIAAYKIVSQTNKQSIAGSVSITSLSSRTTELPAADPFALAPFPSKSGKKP
Set-up: species or system MV4-11 + K-562 + COLO205 + SK-N-BE2 + OVCAR-8
conditionsUsed: read-out: apparent Kd; compound concentrations:100 nM and 1000 nM (sheet 'Samples'); n = 1

| compound | potency estimated from few doses [µM] |
| --- | --- |
| CCn1c(-c2nonc2N)nc2c(C#CC(C)(C)O)nc(O[C@@H](CN)c3ccccc3)cc21.O=C(O)C(F)(F)F [GSK1007102B] | 0.111 |
| Cl.Cl.NCC(NCc1ccc(-c2ccnc3[nH]ccc23)s1)c1ccccc1.NCC(NCc1ccc(-c2ccnc3[nH]ccc23)s1)c1ccccc1 (stereo not drawn) [GSK1321565A] | 0.942 |
| Cc1cc(NC(=O)c2cccc(NC(=O)/C=C/CN(C)C)c2)ccc1Nc1nccc(-c2cccnc2)n1 [JNK-IN-7] | 0.883 |

* * *

System: MAPK8
Design: species or system human, MV4-11 + K-562 + COLO205 + SK-N-BE2 + OVCAR-8
conditionsUsed: read-out: apparent Kd; compound concentrations:100 nM and 1000 nM (sheet 'Samples'); n = 1
measuredEndpoint: potency estimated from few doses (nM)

| compound | unitsSymbol | reportedResult |
| --- | --- | --- |
| CCn1c(=O)c(Oc2ccc(F)cc2F)cc2cnc(NC3CCOCC3)nc21 | nM | 153 |
| Fc1ccc(-c2c(-c3ccncc3)[nH]c3nccnc23)cc1 | nM | 1790 |
| CS(=O)(=O)CCn1c(=O)c(Oc2ccc(F)cc2F)cc2cnc(NC3CCOCC3)nc21 | nM | 1130 |
| Cl.Cn1c(=O)c(Oc2ccc(F)cc2F)cc2cnc(N[C@H]3CC[C@H](O)CC3)nc21 | nM | 75.9 |
| Cl.Cn1c(=O)c(Oc2ccc(F)cc2F)cc2cnc(NC3CCS(=O)(=O)CC3)nc21 | nM | 922 |
| Cn1c(=O)c(-c2ccccc2Cl)cc2cnc(NC3CCOCC3)nc21 | nM | 318 |
| CC(C)Oc1ccc2c(-c3ccnc(Nc4ccc(N5CCN(C)CC5)cc4)n3)cnn2n1 [GW696155X] | nM | 352 |
| COc1cc[nH]c1/C=C1\C(=O)Nc2ccc(F)c(C#C[C@@H](O)[C@@H](N)[C@@H](C)O)c21 | nM | 942 |

* * *

Overview of recorded potency estimated from few doses for various molecules
Tested on: PRKACB
Set-up: species or system human, MV4-11 + K-562 + COLO205 + SK-N-BE2 + OVCAR-8
conditionsUsed: read-out: apparent Kd; compound concentrations:100 nM and 1000 nM (sheet 'Samples'); n = 1
measuredEndpoint: potency estimated from few doses (nM)

| molecule | measuredEndpoint | reportedResult |
| --- | --- | --- |
| COc1ccc(O)c(C(=O)c2ccc(C(=O)O[C@@H]3CCCNC[C@H]3NC(=O)c3ccncc3)cc2)c1F.Cl [RO0480500-002] | potency estimated from few doses | 21.1 |
| CS(=O)(=O)CCn1c(=O)c(Oc2ccc(F)cc2F)cc2cnc(NC3CCOCC3)nc21 [RO5027956-000] | potency estimated from few doses | 977 |
| Cl.Cl.NCC(C(=O)Nc1cc(Br)c(-c2ccnc3[nH]ccc23)s1)c1ccccc1.NCC(C(=O)Nc1cc(Br)c(-c2ccnc3[nH]ccc23)s1)c1ccccc1 (stereo not drawn) [GSK1269851A] | potency estimated from few doses | 1920 |
| CCn1c(-c2nonc2N)nc2c(C#CC(C)(C)O)nc(O[C@@H](CN)c3ccccc3)cc21.O=C(O)C(F)(F)F [GSK1007102B] | potency estimated from few doses | 41.1 |
| Cl.Cl.NC[C@H](CC1CCCCC1)NC(=O)c1ccc(-c2ccnc3[nH]ccc23)s1.NC[C@H](CC1CCCCC1)NC(=O)c1ccc(-c2ccnc3[nH]ccc23)s1 [GSK1581428A] | potency estimated from few doses | 49.7 |
| Cl.Cl.NC[C@H](Cc1ccc(C(F)(F)F)cc1)NC(=O)c1cc(Br)c(-c2ccnc3[nH]ccc23)s1.NC[C@H](Cc1ccc(C(F)(F)F)cc1)NC(=O)c1cc(Br)c(-c2ccnc3[nH]ccc23)s1 [GSK1487252A] | potency estimated from few doses | 60.6 |
| Nc1nc(N)c2nc(-c3ccccc3)[nH]c2n1 [SKF-12778] | potency estimated from few doses | 1790 |
| CC(C)NCC(Cc1ccccc1)NC(=O)c1cc(Br)c(-c2ccnc3[nH]ccc23)s1.CC(C)NCC(Cc1ccccc1)NC(=O)c1cc(Br)c(-c2ccnc3[nH]ccc23)s1.Cl.Cl (stereo not drawn) [GSK1383281A] | potency estimated from few doses | 102 |
| O=C1NC(=O)C(N2CCc3ccccc32)=C1c1ccccc1Cl [SB-373598] | potency estimated from few doses | 1480 |
| CCn1c(-c2nonc2N)nc2c(C#CC(C)(C)O)ncc(OCCCCN)c21.CCn1c(-c2nonc2N)nc2c(C#CC(C)(C)O)ncc(OCCCCN)c21.O=C(O)C(F)(F)F.O=C(O)C(F)(F)F [GSK507274A] | potency estimated from few doses | 965 |
| Cc1occc1-c1nc(N)c(OC[C@@H](N)Cc2c[nH]c3ccccc23)cc1-c1cc2c(C)n[nH]c2cn1 [GSK1660450B] | potency estimated from few doses | 18.6 |
| Cl.Cl.NC[C@H](CC1CCCCC1)NC(=O)c1cc(Br)c(-c2ccnc3[nH]ccc23)s1.NC[C@H](CC1CCCCC1)NC(=O)c1cc(Br)c(-c2ccnc3[nH]ccc23)s1 [GSK1581427A] | potency estimated from few doses | 40.2 |
